Biological target: T1, recombinant human IL-19 (human, UniProt Q9UHD0 25-177)
T1 construct: also called human IL-19 recombinant protein; interleukin-19
T1 sequence: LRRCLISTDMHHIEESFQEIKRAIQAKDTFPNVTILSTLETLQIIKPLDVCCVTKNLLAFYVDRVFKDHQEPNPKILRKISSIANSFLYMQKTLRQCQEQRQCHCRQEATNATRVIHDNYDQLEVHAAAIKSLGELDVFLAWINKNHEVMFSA
Assay: BLI (Octet Red96), antibody on AMQ biosensor, IL-19 in solution, 25 C, 1:1 fit
pKd: −log10 of the molar value.
Consider the following binders and their measured pKd readings.
test_readout: pKd

* rabbit derived IL-19 antibody R_4 (antibody, V domains shown) VH: CQSVEESGGRLVTPGTPLTLTCTVSGIDLSIYAMGWVRQAPGKGLEYIGIIDTTGTAYYARWAKGRFTISKTSATVALKITSPTTEDTATYFCARDSGSLYYGSYALWGPGTLVTVSS VL: DVVMTQTPSSVSEPVGGTVTIKCQASQSIYSYLSWYQQKPGQPPKLLIYEASKLASGVPSRFKGSGSGTQFTLTISGVECADAATYYCQQGYSSSNVDNTFGGGTEVVVT | 8.07
* rabbit derived IL-19 Ab 39 (R_39) (antibody, V domains shown) VH: QEQLKESGGGLVQPGGSLKLSCKASGFDLSSYGVSWVRQAPGKGLEWIGYIDPVFGSTYYANWVNGRFTISSDNAQNTLYLQLNSLTAADTATYFCARGSGYVYYGYTYDLWGPGTLVTVSS VL: DIVMTQTPASVEAAVGGTVTIKCQASQSIYRYLSWYQQKPGQRPKLLIYGASNLASGVSSRFKGSGSGTEFTLTISDLECADAATYYCQSYYYSSSSGYGNVFGGGTEVVVKG | 6.77
* murine derived IL-19 Ab 1 (M_1) (antibody, mouse IgG1, kappa, V domains shown) VH: EVQLQQSGPVLVKPGASVKMSCKASGYKFTDYFVGWVKQSHGKSLEWIGYVDPENGYTRCNQKFKGKATLTVDKSSSTAYMELNSLTSEDSAVYYCARYDYDWAWFTNWGQGTLVTVSA VL: DIVMTQSPSSLAMSVGQKVTMSCKSSQSLLSSYNQKNYLAWYQQKPGQSPKLLVYFASTRPPGVPDRFIGSGSGSDFTLTISSVQAEDLADYFCQQHERLPITFGAGTKLELKR | 10.24

Values from patent US20230220062A1
